- assayed.target: Heat shock factor protein 1 (Mus musculus, UniProt P38532)
- Sequence (P38532 whole entry): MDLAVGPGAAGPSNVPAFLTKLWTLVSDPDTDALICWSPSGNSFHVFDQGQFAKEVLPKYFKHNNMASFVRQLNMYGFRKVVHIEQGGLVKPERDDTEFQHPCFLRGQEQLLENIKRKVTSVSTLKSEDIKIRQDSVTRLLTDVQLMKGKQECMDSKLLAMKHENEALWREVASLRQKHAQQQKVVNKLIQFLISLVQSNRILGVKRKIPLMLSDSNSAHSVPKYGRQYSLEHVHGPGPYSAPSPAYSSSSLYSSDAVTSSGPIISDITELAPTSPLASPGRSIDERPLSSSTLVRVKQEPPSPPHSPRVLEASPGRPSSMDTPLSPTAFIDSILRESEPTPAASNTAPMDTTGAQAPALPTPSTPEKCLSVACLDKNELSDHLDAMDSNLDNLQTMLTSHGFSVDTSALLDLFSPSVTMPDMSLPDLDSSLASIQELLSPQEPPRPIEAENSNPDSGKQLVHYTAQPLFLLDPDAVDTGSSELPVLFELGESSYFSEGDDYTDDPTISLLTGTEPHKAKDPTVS
- assay.overview: enhancement of HSF1-driven luciferase signal – cell-based, NIH3T3, luminescence, dose retest, confirmation (AID 435004);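 further: stress induced by proteasome inhibitor MG132 added 30 min after compound; luciferase reporter driven by HSF1 response element in NIH3T3 cells; actives raise luminescence as potentiators of the MG132 stress response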
- Assay type: functional
Calls of active or inactive are those of the source.
Classes used: TRUE for active, FALSE for inactive

{"compound": "O=S1(=O)c2cccc3cccc(c23)N1Cc1nnc(-c2ccccc2Br)o1", "class": "TRUE"}
{"compound": "O=C(C1CCC(CNS(=O)(=O)c2cccc3nsnc23)CC1)N1CCN(c2ccccn2)CC1 (configuration not stated)", "class": "FALSE"}
{"compound": "CCC(CC)COC(=O)C1=C(C)NC(=O)NC1c1cc(OC)ccc1OC (configuration not stated)", "class": "FALSE"}
{"compound": "CCOC(=S)SCC(=O)Nc1nc(C)c(C)s1", "class": "TRUE"}
{"compound": "CCN(Cc1ccccc1)C(=O)C1CCN(C/C(C)=C/c2ccccc2)CC1", "class": "FALSE"}
{"compound": "Oc1ccc(C2C[C@H]3CC[C@@H]2C3)cc1O (some centres not stated)", "class": "TRUE"}
{"compound": "COc1ccccc1CNC(=O)c1csc(Cc2ccc(Cl)cc2)n1", "class": "FALSE"}

###

- assayed.target: Streptokinase A (Streptococcus pyogenes serotype M1, UniProt P10520)
- Sequence (P10520 whole entry): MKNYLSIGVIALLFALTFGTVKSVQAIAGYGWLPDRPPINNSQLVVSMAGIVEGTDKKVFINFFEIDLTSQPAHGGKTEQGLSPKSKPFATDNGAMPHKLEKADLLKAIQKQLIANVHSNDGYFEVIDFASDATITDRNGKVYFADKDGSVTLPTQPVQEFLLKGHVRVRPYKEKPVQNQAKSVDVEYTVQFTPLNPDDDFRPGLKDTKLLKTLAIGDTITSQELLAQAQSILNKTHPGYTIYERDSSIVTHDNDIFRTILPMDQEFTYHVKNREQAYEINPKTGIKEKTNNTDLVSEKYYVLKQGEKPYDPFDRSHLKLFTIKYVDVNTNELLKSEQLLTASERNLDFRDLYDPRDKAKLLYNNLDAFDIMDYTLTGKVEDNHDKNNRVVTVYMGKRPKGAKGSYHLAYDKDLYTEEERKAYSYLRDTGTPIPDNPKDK
- assay.overview: viability-normalized secreted streptokinase activity reduction – plasminogen activation absorbance, OD405, dose response (AID 1914);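 further: secreted streptokinase activity via plasminogen activation per viability signal from cell pellet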
- Assay type: functional, Streptococcus pyogenes M1 GAS
The source made the active and inactive calls.

{"query.smiles": "Fc1ccccc1CNc1ccc(Cl)c(Cl)c1", "EC50": "> 150 µM (not active)"}
{"query.smiles": "CC(C)c1ccc(N2C(=O)/C(=C/N(C)C)SC2=S)cc1", "EC50": "5.29 µM (active)"}
{"query.smiles": "C/C(=N/NC(=O)CNC(=O)c1cccnc1)c1cccc([N+](=O)[O-])c1", "EC50": "> 150 µM (not active)"}
{"query.smiles": "COc1cc(OC)c([C@H]2C=C(C)[C@H]3C[C@@H]2C3(C)C)c(OC)c1", "EC50": "63.3 µM (active)"}
{"query.smiles": "COc1ccc(C(=O)O)cc1NC(=S)NC(=O)c1ccc(-c2ccc(Cl)cc2)o1", "EC50": "23.8 µM (inconclusive)"}

###

- assayed.target: Caspase-3 (Homo sapiens, UniProt P42574);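 further: Dose-response selectivity test against caspase-3 for candidate inhibitors of sentrin-specific proteases (SENPs)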
- Sequence (P42574 whole entry): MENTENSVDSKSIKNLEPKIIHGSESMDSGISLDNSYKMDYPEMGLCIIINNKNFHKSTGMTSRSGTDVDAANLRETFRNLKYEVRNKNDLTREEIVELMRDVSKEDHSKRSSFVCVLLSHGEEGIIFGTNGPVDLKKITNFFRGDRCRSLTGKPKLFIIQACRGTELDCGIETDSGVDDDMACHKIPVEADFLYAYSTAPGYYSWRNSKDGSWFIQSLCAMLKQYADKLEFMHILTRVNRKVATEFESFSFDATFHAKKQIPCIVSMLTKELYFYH
- Type: functional
Calls of active or inactive are those of the source.
Below, each of the compounds is paired with its reported IC50 value.

{"compound": "CCOC(=O)c1sc(NC(=O)c2ccc(C)s2)cc1C", "IC50": "20.3 µM (active)"}
{"compound": "C=CCn1c(NC(=O)c2ccccc2Cl)c(C#N)c2nc3ccccc3nc21", "IC50": "5.6 µM (active)"}
{"compound": "CC1=NN(C(N)=S)C(=O)C1N=Nc1ccccc1 (stereo not given)", "IC50": "3.7 µM (active)"}
{"compound": "CCOC(=O)c1ccc(Nc2cc3ccccc3c(O)n2)cc1", "IC50": "8.27 µM (active)"}
{"compound": "O=c1oc2c(O)cccc2cc1-c1nc2ccccc2[nH]1", "IC50": "0.95 µM (active)"}

Taken from ChEMBL document CHEMBL1201862.
